Test: Clearance in Wistar rat at 3 mg/kg, po and 0.3 mg/kg, iv
Type: ADME, organism-based
Conditions: in vivo
Examples of compounds with documented clearance follow.
Express it in mL/min/kg; write the number only.

Worked cases, clearance given:
> print(dat)
                                smiles.data  result.unit  result
1  CCC/N=C1\S/C(=C\c2ccc(O)c(Cl)c2)C(=O)N1c1ccccc1C    mL/min/kg      92
2  CCC/N=C1\S/C(=C\c2ccc(OCCO)c(Cl)c2)C(=O)N1c1ccccc1C    mL/min/kg      48

Enquiry: Find the recorded clearance belonging to CCC/N=C1\S/C(=C\c2ccc(OC[C@@H](O)CO)c(Cl)c2)C(=O)N1c1ccccc1C and report it.
Return: 25
